// data source = paper PMC8997399

tested-system: PfIMPα (Plasmodium falciparum, UniProt Q8IAW0)
Sequence (Q8IAW0 entry or part of it): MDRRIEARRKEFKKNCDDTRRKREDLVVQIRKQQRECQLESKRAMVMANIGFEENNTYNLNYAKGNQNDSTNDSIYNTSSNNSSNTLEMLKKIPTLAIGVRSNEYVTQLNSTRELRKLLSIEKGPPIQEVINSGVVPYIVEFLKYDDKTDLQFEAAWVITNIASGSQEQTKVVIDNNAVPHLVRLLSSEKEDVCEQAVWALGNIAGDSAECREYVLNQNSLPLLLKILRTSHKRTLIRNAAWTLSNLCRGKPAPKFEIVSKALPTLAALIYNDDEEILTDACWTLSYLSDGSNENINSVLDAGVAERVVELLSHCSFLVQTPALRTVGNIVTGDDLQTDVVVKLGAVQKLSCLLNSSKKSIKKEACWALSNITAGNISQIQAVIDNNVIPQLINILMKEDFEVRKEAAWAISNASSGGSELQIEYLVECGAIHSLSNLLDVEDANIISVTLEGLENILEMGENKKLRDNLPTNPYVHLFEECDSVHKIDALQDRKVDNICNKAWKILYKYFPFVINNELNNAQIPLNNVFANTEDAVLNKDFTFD
Assay type: binding
condition-info: single experiment (Figure 3); IMPα 5 nM, NLS 30 nM; read-out: IC50 PfIMPα:TGS1-NLS-GFP
property: pIC50
Answers are plain numbers, as −log10 of the molar value.

pIC50 reported for this compound CC(=O)OC[C@H]1O[C@@H]([S-])[C@H](OC(C)=O)[C@@H](OC(C)=O)[C@@H]1OC(C)=O.CCP(CC)CC.[Au+] [auranofin] : 7.10

====

Provide the recorded % Inhibition of IMPα-NLS Interaction MmΔIBBIMPα for the entries that follow.
tested-system: MmΔIBBIMPα (Mus musculus, UniProt P52293)
Construct: made in house
test-method-notes: AlphaScreen binding assay, MmΔIBBIMPα:T-ag-NLS-GFP interaction
condition-info: compounds at 10 μM; ΔIBBMmIMPα (5 nM):T-ag-NLS-GFP (30 nM); relative to 1% DMSO control
Numbers only, in %.

> print(dat)
                                   compound  quantity.unit  endpoint.result
1  O=C(Nc1nc(-c2ccccn2)cs1)c1cncn1-c1ccccc1 [MMV676512]              %               54
2  CC(C)(CN)c1nc(-c2ccc(Cl)c(O)c2)c(-c2ccnc(N)n2)[nH]1 [MMV030734]              %               43
3  CC[n+]1c(/C=C/C=C2/N(C)c3ccccc3C2(C)C)sc2ccccc21.[I-] [AC-93253 iodide]              %               67

# next compound below
% Inhibition of IMPα-NLS Interaction MmΔIBBIMPα reported for this compound O=C(Nc1ccc(N2CCNCC2)nc1)c1oc(-c2ccccc2)nc1C(F)(F)F [MMV024937] : 70
